Molecular target: T1, BS69CC-MYND (BS69 amino acid 480–602, CC-MYND domain) (Homo sapiens, UniProt Q15326)
T1 construct: The BS69 CC-MYND domain (amino acids 480–602) was amplified from pCI-BS69; GST (N, cleaved yes); 6xHis (N, cleaved yes); made in house; host or cells: E. coli Rosetta 2 (DE3) pLysS
T1 sequence (Q15326 480-602): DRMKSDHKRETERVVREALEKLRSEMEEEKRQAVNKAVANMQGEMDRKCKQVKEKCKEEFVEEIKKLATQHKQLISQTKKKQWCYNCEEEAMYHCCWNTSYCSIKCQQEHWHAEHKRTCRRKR
Assay: Isothermal titration calorimetry (ITC) of EBNA2 peptides and polypeptides binding to BS69CC-MYND
Conditions: 29 injections, mean ± SD of 3 independent experiments
Endpoint Name: ΔG, event 2, two-site model

Solved entries (count: 3):
Molecule	Observed
T2 EBNA2_348-422 SD: type 2 EBNA2 polypeptide 348–422 with an S409D mutation (protein, left off: His6, N-terminal, cleaved, type 2 EBNA2 polypeptide 348–422 with an S409D mutation) SMPQLSPVVSLHQGQGPENSPTPGPSTAGPVCRVTPSATPDISPIHEPESSDSEEPPFLFPDDWYPPTLEPAELD	-9.14 ± 0.08 kcal/mol
EBNA2_348-422 SD + m3 T1: type 2 EBNA2 polypeptide 348–422 containing both the SD and motif 3 (PSIDP) mutations (protein, left off: His6, N-terminal, cleaved, type 2 EBNA2 polypeptide 348–422 containing both the SD and motif 3 (PSIDP) mutations) SMPQLSPVVSLHQGQGPENSPTPGPSTAGPVCRVTPSATPDISPIHEPESSDSEEPPFLFPDDWYPPSIDPAELD	-9.44 ± 0.35 kcal/mol
EBNA2_348-422 SD + m3 mt: type 2 EBNA2 polypeptide 348–422 containing both the SD and motif 3 (ATAEA) mutations (protein, left off: His6, N-terminal, cleaved, type 2 EBNA2 polypeptide 348–422 containing both the SD and motif 3 (ATAEA) mutations) SMPQLSPVVSLHQGQGPENSPTPGPSTAGPVCRVTPSATPDISPIHEPESSDSEEPPFLFPDDWYPATAEAAELD	-11.3 ± 0.12 kcal/mol

Turning to the following molecule.
For T2 EBNA2_348-422: type 2 EBNA2 polypeptide containing motif 1, 2 and 3, amino acids 348–422 (protein, left off: His6, N-terminal, cleaved) SMPQLSPVVSLHQGQGPENSPTPGPSTAGPVCRVTPSATPDISPIHEPESSDSEEPPFLFPSDWYPPTLEPAELD the molecule record lists ΔG, event 2, two-site model as -9.62 ± 0.16 kcal/mol
